test system: W2; assay: qHTS profiling for inhibitors of Plasmodium falciparum proliferation (AID 504749); also: nearly all actives have a fitted effect of over 60% in size; settings: P. falciparum in erythrocytes, SYBR Green DNA, 72 h; series mostly up to 28.7 µM
Records with an inconclusive call do not appear. Active and inactive are the calls of the source. Calls follow the shape of the dose curve; as a rule, active = well fitted inhibition curve with a large enough effect; inconclusive = small, poorly fitted or top-dose-only effect; inactive = flat fitted curve, though single readings scatter.
Select the correct class. Options are T (active), F (inactive) and nothing else.

Ask | Hello, I am checking results. What call was entered for Nc1cc(C(Cl)=C(Cl)Cl)c(S(N)(=O)=O)cc1S(N)(=O)=O ?
Reply | F

Ask | What did the test return for CCC[C@@H]1C[C@@H](C(=O)N[C@@H]([C@H]2O[C@H](SC)[C@H](O)[C@@H](O)[C@H]2O)[C@@H](C)O)N(C)C1 ?
Reply | T

Ask | Can you look up the reported call for O=C(NCCO[N+](=O)[O-])c1cccnc1 for me?
Reply | F

Ask | // return assay outcome for Cc1c(C(=O)NN2CCCCC2)nn(-c2ccc(Cl)cc2Cl)c1-c1ccc(Cl)cc1
Reply | T

Ask | How was CS(=O)(=O)OCCCCOS(C)(=O)=O classified in this test?
Reply | F

Ask | Answer briefly: the call reported for C=CCc1cc(OC)c(O)c(C(=O)NCCO)c1 in this assay.
Reply | F

Ask | Which outcome was entered for the compound CNC[C@@H](O)[C@@H](O)[C@H](O)[C@H](O)CO in this test?
Reply | F

Ask | Per the assay record, what outcome was assigned to CCCCc1ccc2nc(NC(=O)OC)[nH]c2c1 ?
Reply | F

Ask | Could you please tell me the result logged for O=C(O)c1cccnc1Nc1cccc(C(F)(F)F)c1 in this assay?
Reply | F

Ask | Per the records of this test, what outcome belongs to CCCOc1ccc2nc(NC(=O)OC)[nH]c2c1 ?
Reply | F

Ask | How did this test come out for CC1(C)CCC(C)(C)c2cc(NC(=O)c3ccc(C(=O)O)cc3)ccc21 ?
Reply | F

Ask | Please state the recorded outcome for this compound: Cc1cc(C2CCCCC2)n(O)c(=O)c1
Reply | T

----------
assay: qHTS for differential inhibitors of proliferation of Plasmodium falciparum line HB3 (AID 1886); conditions: Plasmodium falciparum HB3 proliferation inhibition; series mostly up to 28.7 µM;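 also: parasites grown with compound for 72 h before SYBR Green readout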
Inconclusive results are not listed. Calls of active or inactive are those of the source. Calls follow the shape of the dose curve; as a rule, active = well fitted curve in the direction sought with a large enough effect; inconclusive = small, poorly fitted or top-dose-only effect, or another doubt; inactive = no such curve, though single readings can be large or run the other way.
Answer with one of the outcomes given here: active, inactive

Ask | For this molecule, state the assay outcome: O=c1ccc2ccc(O)c(O)c2o1
Reply | active

Ask | Tell me the recorded outcome of this test for C[C@H](Cc1ccc(O)c(O)c1)[C@@H](C)Cc1ccc(O)c(O)c1 .
Reply | active

Ask | Hey, what did the test say about COc1ccc2cc([C@H](C)C(=O)O)ccc2c1 ?
Reply | inactive

Ask | // return assay outcome for CC(=O)O[C@H]1C(=O)[C@@]2(C)C([C@H](OC(=O)c3ccccc3)[C@]3(O)C[C@H](OC(=O)[C@H](O)[C@@H](NC(=O)c4ccccc4)c4ccccc4)C(C)=C1C3(C)C)[C@]1(OC(C)=O)CO[C@@H]1C[C@@H]2O (some centres undefined)
Reply | active

----------
Assay: qHTS of pediatric cancer cell lines to identify multiple opportunities for drug repurposing: Primary screen for Rh18 cells (AID 1347102); also: nearly all actives have a fitted effect of over 65% in size
Conditions: Rh18 rhabdomyosarcoma viability, CellTiter-Glo luminescence, 48 h; series mostly up to 46 µM
Experimental: Drug repurposing or repositioning has been offered as a strategy for drug development in oncology programs. […] [1] Shen, M et al. Quantitative high-throughput phenotypic screening of pediatric cancer cell lines identifies multiple opportunities for drug repurposing. […] Cells were assayed in growth media at a density of 500-1,000 cells/well. […] After a 15 min incubation at room temperature, samples were analyzed for luminescence intensity using a ViewLux High-throughput CCD imager equipped with clear filters.
Records with an inconclusive call do not appear. Calls of active or inactive are those of the source. Calls come from the whole dose curve; as a rule, active = well fitted cell-killing curve with a large enough effect; inconclusive = small, poorly fitted or top-dose-only effect; inactive = flat fitted curve, though single readings scatter.
Can you answer with just one of these options? TRUE = active, FALSE = inactive

Ask | Tell me the assay call for O=C(O)c1cn(-c2ccc(F)cc2)c2cc(N3CCNCC3)c(F)cc2c1=O please.
Reply | FALSE

Ask | Dear all, I need the recorded test outcome for O=C(c1ccccc1)c1ccc2n1CCC2C(=O)O (configuration not stated) , thank you.
Reply | FALSE

Ask | Which outcome was assigned to O=c1ccc2ccc(O)c(O)c2o1 in this test?
Reply | FALSE

Ask | Tell me the assay call for CC(C)C[C@H](NC(=O)[C@H](Cc1ccccc1)NC(=O)c1cnccn1)B(O)O please.
Reply | TRUE

Ask | Could you please tell me the result logged for CCC1=C(C)CN(C(=O)NCCc2ccc(S(=O)(=O)NC(=O)NC3CCC(C)CC3)cc2)C1=O (configuration not stated) in this assay?
Reply | FALSE

Ask | Recorded test outcome, item CNC[C@@H](O)[C@@H](O)[C@H](O)[C@H](O)CO
Reply | FALSE

Ask | # outcome recorded in this test, key = Cc1cccc(C#Cc2ccccc2)n1
Reply | FALSE

Ask | Status in this test for CC(S)C(=O)NCC(=O)O (configuration not stated) ?
Reply | FALSE

Ask | Please state the recorded outcome for this compound: CC1(C)CCC(C)(C)c2cc(NC(=O)c3ccc(C(=O)O)cc3)ccc21
Reply | FALSE

Ask | Look up the recorded call for Nc1ccc(S(N)(=O)=O)cc1 in this test.
Reply | FALSE

Ask | Status in this test for Cc1ccc(NC(=O)c2ccc(CN3CCN(C)CC3)cc2)cc1Nc1nccc(-c2cccnc2)n1 ?
Reply | FALSE

Ask | Lab log entry: CC1Cc2ccccc2N1NC(=O)c1ccc(Cl)c(S(N)(=O)=O)c1 (configuration not stated) — outcome as called in the assay?
Reply | FALSE

----------
test system: PA-1; experiment: Primary qHTS to identify gynecologic anti-cancer compounds using libraries of approved drugs and bioactive compounds (AID 1345084); conditions: Gynecologic cancer cell panel viability, ATPlite luminescence, 48 h; series mostly up to 57.5 µM; also: nearly all actives have a fitted effect of over 55% in size; also: potency is read from the fitted curve at half-maximal effect
Records with an inconclusive call do not appear. Active and inactive are the calls of the source. Calls come from the whole dose curve; as a rule, active = well fitted cell-killing curve with a large enough effect; inconclusive = small, poorly fitted or top-dose-only effect, or effect the other way; inactive = flat fitted curve, though single readings scatter.
attributeMeasured: Potency

Below, 5 compounds whose answers are already recorded.
compound	result
Cc1ccc(NC(=O)c2ccc(CN3CCN(C)CC3)cc2)cc1Nc1nccc(-c2cccnc2)n1	25.1 µM (active)
CC(C)c1ccc2oc3nc(N)c(C(=O)O)cc3c(=O)c2c1	5.62 µM (active)
Cc1nc2n(c(=O)c1CCN1CCC(c3noc4cc(F)ccc34)CC1)CCCC2	inactive
C=CCc1cc(OC)c(O)c(C(=O)NCCO)c1	inactive
CC[C@]1(O)C[C@H]2CN(CCc3c([nH]c4ccccc34)[C@@](C(=O)OC)(c3cc4c(cc3OC)N(C=O)[C@H]3[C@@](O)(C(=O)OC)[C@H](OC(C)=O)[C@]5(CC)C=CCN6CC[C@]43[C@@H]65)C2)C1	0.199 µM (active)

For this compound ( CCC(C)(Oc1ccc(C2(c3ccc(OC(C)(CC)C(=O)O)cc3)CCCCC2)cc1)C(=O)O (stereo not given) ), measured Potency is inactive

Lab note: O=C(NC(Cc1cc(=O)[nH]c2ccccc12)C(=O)O)c1ccc(Cl)cc1 (stereo not given) gave Potency of inactive

// Potency lookup, compound = O=C(NCC1CCCCN1)c1cc(OCC(F)(F)F)ccc1OCC(F)(F)F (stereo not given) , result: inactive

For reference, reported Potency for CCc1nc(N)nc(N)c1-c1ccc(Cl)cc1 stands at 7.94 µM (active)

Entry Cn1c(NCCN(CCO)CCCc2ccc([N+](=O)[O-])cc2)cc(=O)n(C)c1=O , Potency reported as inactive

response.value for COc1cc2c(N3CCN(C(=O)Nc4ccc(OC(C)C)cc4)CC3)ncnc2cc1OCCCN1CCCCC1 (field: Potency) = inactive

----------
experiment: Quantitative High-Throughput drug screen in 47 multiple myeloma cell lines against the NCATS MIPE library collection: KMS34_JCRB cell viability assay (AID 1918985); settings: KMS34 myeloma viability, CellTiter-Glo ATP luminescence, 48 h; series mostly up to 45.8 µM; also: nearly all actives have a fitted effect of over 40% in size
Records with an inconclusive call do not appear. Active and inactive are the calls of the source. Calls follow the shape of the dose curve; as a rule, active = well fitted cell-killing curve with a large enough effect; inconclusive = small, poorly fitted or top-dose-only effect, or effect the other way; inactive = no such curve, though single readings can be large or run the other way.
Choose the fitting class; nothing outside 1 = active, 0 = inactive is accepted.

Ask | Hello, I am checking results. What call was entered for O=C(NCCO[N+](=O)[O-])c1cccnc1 ?
Reply | 0

Ask | Could you check what this test reported for C=CCc1cc(OC)c(O)c(C(=O)NCCO)c1 ?
Reply | 0

Ask | Name the outcome recorded for CNC[C@@H](O)[C@@H](O)[C@H](O)[C@H](O)CO in the assay.
Reply | 0

Ask | Please state the recorded outcome for this molecule: CCCCCCCCOc1ccccc1C(=O)Nc1ccc(C(=O)OCC[N+](C)(CC)CC)cc1
Reply | 1

Ask | Could you kindly confirm the outcome this assay logged for CS(=O)(=O)OCCCCOS(C)(=O)=O ?
Reply | 0

Ask | Please share the test call associated with CCCc1cc(=O)[nH]c(=S)[nH]1 .
Reply | 0

Ask | Hi, do you know how Cc1nc(-c2ccc(OCC(C)C)c(C#N)c2)sc1C(=O)O came out in this test?
Reply | 0

Ask | For Cn1c(NCCN(CCO)CCCc2ccc([N+](=O)[O-])cc2)cc(=O)n(C)c1=O , what call appears in the results of this test?
Reply | 0

Ask | Look up the recorded call for Cc1ccc(C(=O)c2cc(O)c(O)c([N+](=O)[O-])c2)cc1 in this test.
Reply | 0

Ask | What did this assay record as the result for Cc1cc(O)c2c(c1)C(=O)c1cc(O)cc(O)c1C2=O ?
Reply | 0

Ask | Just curious, what result did CCOC(=O)C(C)Oc1cccc2c(=O)n(CC(=O)Nc3ccc4c(c3)OCCO4)ccc12 (centres undefined) get here?
Reply | 0

Ask | Outcome? COc1c2occc2cc2ccc(=O)oc12
Reply | 0

Ask | // outcome(item) with item = c1cnc2cc3c(cc2n1)C1CNCC3C1
Reply | 0

Ask | Tell me the assay call for CN(C)C(=O)[C@H](O)[C@H](Cc1ccccc1)NC(=O)c1cc2cc(Cl)ccc2[nH]1 please.
Reply | 1

Ask | Per the records of this test, what outcome belongs to C[C@@H](c1ncncc1F)[C@](O)(Cn1cncn1)c1ccc(F)cc1F ?
Reply | 0

Ask | Give the logged outcome of this assay for the following molecule: CC1=C(C(=O)O)N2C(=O)[C@@H](NC(=O)[C@H](N)C3=CCC=CC3)[C@H]2SC1
Reply | 0

Ask | Per the assay record, what outcome was assigned to COCCCN1CCC(NC(=O)c2cc(Cl)c(N)c3c2OCC3)CC1 ?
Reply | 0

Ask | Would you mind telling me which call this test gave CCCOc1ccc2nc(NC(=O)OC)[nH]c2c1 ?
Reply | 1

Ask | Please indicate how the test categorized Cc1nc(Nc2ncc(C(=O)Nc3c(C)cccc3Cl)s2)cc(N2CCN(CCO)CC2)n1 .
Reply | 1

Ask | Per the assay record, what outcome was assigned to NCCCCNCCCN ?
Reply | 1

Ask | Given NNc1nncc2ccccc12 , state the outcome it received in this test.
Reply | 0

Ask | Hello, I am checking results. What call was entered for COc1cc(Nc2c(C#N)cnc3cc(OCCCN4CCN(C)CC4)c(OC)cc23)c(Cl)cc1Cl ?
Reply | 1

Ask | Any idea what this test logged for CCCCc1ccc2nc(NC(=O)OC)[nH]c2c1 ?
Reply | 1

Ask | What did the test return for CC(C)[N+]1(C)[C@@H]2CC[C@H]1CC(OC(=O)C(CO)c1ccccc1)C2 (some centres undefined) ?
Reply | 0
